STUDY SYSTEM: CYP1A2 (Homo sapiens)
Construct: tissue XenoTech; host or cells: pooled human liver microsomes
Sequence (P05177 whole entry): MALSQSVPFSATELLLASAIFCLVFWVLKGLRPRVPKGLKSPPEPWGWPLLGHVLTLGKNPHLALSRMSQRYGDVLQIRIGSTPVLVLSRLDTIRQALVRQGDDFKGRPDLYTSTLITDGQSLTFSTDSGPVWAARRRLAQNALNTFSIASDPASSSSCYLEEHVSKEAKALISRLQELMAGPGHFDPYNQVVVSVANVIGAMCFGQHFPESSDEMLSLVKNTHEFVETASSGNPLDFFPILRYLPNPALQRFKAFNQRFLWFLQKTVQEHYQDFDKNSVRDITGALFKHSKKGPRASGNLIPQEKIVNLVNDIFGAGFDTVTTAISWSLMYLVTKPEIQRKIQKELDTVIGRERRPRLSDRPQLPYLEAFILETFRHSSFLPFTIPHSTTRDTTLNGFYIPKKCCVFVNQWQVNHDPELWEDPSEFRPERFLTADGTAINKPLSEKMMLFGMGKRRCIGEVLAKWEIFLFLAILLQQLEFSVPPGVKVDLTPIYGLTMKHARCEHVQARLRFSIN
PROTOCOL DESCRIPTION: Human liver CYP inhibition assay (cocktail, pooled HLM)
Format: in vitro ADME
CONDITION SUMMARY: human liver CYP isoenzymes, pooled HLM; read-out: CYP IC50: 1A2
pIC50: −log10 of the molar value.
TEST READOUT: pIC50

Name the reported pIC50 value associated with the compound C[C@@]1(O)CC[C@H]2[C@H](CC[C@@H]3[C@@H]2CC[C@]2(C)[C@@H](C(=O)Cn4cnn(-c5ccnc(OCC(F)(F)F)c5)c4=O)CC[C@@H]32)C1
< 4.52

Cited source: paper PMC12073189
